The measured values listed here are drawn from PubChem BioAssay (NCATS).

assay: qHTS of pediatric cancer cell lines to identify multiple opportunities for drug repurposing: Primary screen for A673 cells (AID 1347092); conditions: A673 Ewing sarcoma viability, CellTiter-Glo ATP luminescence, 48 h; series mostly up to 46 µM; note: nearly all actives have a fitted effect of over 45% in size; note: potency is the fitted concentration of half-maximal effect
Results filed as inconclusive are left out. Activity calls are given as the source filed them. Calls come from the whole dose curve; as a rule, active = well fitted cell-killing curve with a large enough effect; inconclusive = small, poorly fitted or top-dose-only effect; inactive = no such curve, though single readings can be large or run the other way.
observable: Potency

1. CC(C)OC(=O)CCCC=CC[C@@H]1[C@H](C=C[C@@H](O)COc2cccc(C(F)(F)F)c2)[C@H](O)C[C@@H]1O; inactive
2. CC[C@]1(O)C[C@@H]2CN(CCc3c([nH]c4ccccc34)[C@@](C(=O)OC)(c3cc4c(cc3OC)N(C=O)[C@@H]3C45CCN4CC=C[C@](CC)([C@H]45)[C@@H](OC(C)=O)[C@]3(O)C(=O)OC)C2)C1 (some centres undefined); 11.8 µM (active)
3. O=C1C(Cl)=C(NCCN2CCOCC2)C(=O)c2ncccc21; 1.87 µM (active)
4. COc1cc(O)c2c(c1)C(=O)c1cc(C)cc(O)c1C2=O; inactive

---

assay: Quantitative High-Throughput drug screen in 47 multiple myeloma cell lines against the NCATS MIPE library collection: MM1R_ATCC cell viability assay (AID 1918981); conditions: MM1R multiple myeloma cells, CellTiter-Glo viability, 48 h; series mostly up to 45.8 µM; note: nearly all actives have a fitted effect of over 35% in size
Results filed as inconclusive are left out. Calls of active or inactive are those of the source. The call rests on the fitted dose curve; in most records, active means well fitted cell-killing curve with a large enough effect; inconclusive means small, poorly fitted or top-dose-only effect, or effect the other way; inactive means no such curve, though single readings can be large or run the other way.
Field 'call' accepts active, inactive

1. Cc1nc(N)sc1-c1ccnc(Nc2ccc(N3CCOCC3)cc2)n1; active

How did this test come out for CC(C)C(=O)Oc1ccc(CO)cc1[C@H](CCN(C(C)C)C(C)C)c1ccccc1 ? inactive

---

Reported values of parasite growth remaining, % of DMSO control (lower = more inhibition) for individual entries
test: qHTS profiling of the MIPE4 collection as inhibitors of Plasmodium falciparum (DD2) proliferation (AID 743345); settings: P. falciparum Dd2 in erythrocytes, SYBR Green DNA, 72 h; at 28.5 µM (top of the series) unless noted
Give just the numeric value; % need not be written.

1. COC(=O)C1=CO[C@@H](O)[C@@H]2C(CO)=CC[C@@H]12; 85.9

Query (molecule): NC(=O)c1cccc(-c2cc(Nc3ccc(OC(F)(F)F)cc3)ncn2)c1 ; field requested: parasite growth remaining, % of DMSO control (lower = more inhibition) 63.7

Would you mind doing CC=CC(=O)N(CC)c1ccccc1C as well? 104

Would you mind doing O=C(Nc1c(Cl)cncc1Cl)c1ccc(OC(F)F)c(OCC2CC2)c1 as well? 100

Would you mind doing O=C(Nc1cc(Cl)cc2c1[nH]c1cnccc12)c1cccnc1 as well? 15.5

Would you mind doing C=C1C(=O)OC(CCCCCCCC)C1C(=O)O (stereo not given) as well? 76.2

Would you mind doing COC(=O)N[C@H](C(=O)N1CCC[C@@H]1c1ncc(-c2ccc(-c3ccc(-c4cnc([C@@H]5CCCN5C(=O)[C@@H](NC(=O)OC)C(C)C)[nH]4)cc3)cc2)[nH]1)C(C)C as well? 9.13

Would you mind doing O=C(CCN1CCN(C(=O)OCc2cc(Cl)cc(Cl)c2)CC1)c1ccc2[nH]c(=O)oc2c1 as well? 103

Would you mind doing Clc1ccc(C(c2ccc(Cl)cc2)n2cc[n+](CC(OCc3ccc(Cl)cc3Cl)c3ccc(Cl)cc3Cl)c2)cc1 (stereo not given) as well? 5.85

---

test system: PA-1; experiment: Primary qHTS to identify gynecologic anti-cancer compounds using libraries of approved drugs and bioactive compounds (AID 1345084); details: Gynecologic cancer cell panel viability, ATPlite luminescence, 48 h; series mostly up to 57.5 µM; note: nearly all actives have a fitted effect of over 55% in size; note: potency is the fitted concentration of half-maximal effect
Inconclusive results are not listed. Activity calls are given as the source filed them. Calls come from the whole dose curve; as a rule, active = well fitted cell-killing curve with a large enough effect; inconclusive = small, poorly fitted or top-dose-only effect, or effect the other way; inactive = flat fitted curve, though single readings scatter.
observable: Potency

1) CN(C)c1cc(NC(=O)CNC(C)(C)C)c(O)c2c1C[C@@H]1C[C@H]3[C@H](N(C)C)C(=O)C(C(N)=O)=C(O)[C@@]3(O)C(=O)C1=C2O; inactive
2) O=C1NC(=O)C(c2ccccc2)(c2ccccc2)N1; inactive
3) COc1ncc(-c2ccc3nccc(-c4ccnnc4)c3c2)cc1NS(=O)(=O)c1ccc(F)cc1F; 0.355 µM (active)
4) COC[C@@H](c1ccc(C(F)(F)F)cc1)N1CCN(C2(C)CCN(C(=O)c3c(C)ncnc3C)CC2)C[C@H]1C; inactive

# input for lookup
Enter reported Potency observed with PA-1 for CC(C)(C)Cn1c(N)nc2ccc(-c3[nH]c(C(C)(C)C)nc3-c3ccc(F)cc3)nc21 inactive

---

Reported values of Potency for individual entries
assay: Quantitative High-Throughput drug screen in 47 multiple myeloma cell lines against the NCATS MIPE library collection: MMM1_PLB cell viability assay (AID 1918976); details: MMM1 myeloma cells viability, CellTiter-Glo, 48 h; series mostly up to 45.8 µM; note: potency is the fitted concentration of half-maximal effect; nearly all actives have a fitted effect of over 35% in size
Inconclusive results are not listed. Calls of active or inactive are those of the source. Calls follow the shape of the dose curve; as a rule, active = well fitted cell-killing curve with a large enough effect; inconclusive = small, poorly fitted or top-dose-only effect, or effect the other way; inactive = no such curve, though single readings can be large or run the other way.

1. CC1(C)CCC2=C(O1)c1ccccc1C(=O)C2=O; 2.64 µM (active)

Query (compound): COc1ccc(Cc2nccc3cc(OC)c(OC)cc23)cc1OC ; field requested: Potency 23.5 µM (active)

Would you mind doing O=c1ccn([C@@H]2O[C@H](CO)[C@H](O)[C@H]2O)c(=O)[nH]1 as well? 8.33 µM (active)

Would you mind doing O=C(NCc1ccncc1)C12C[C@H]3C[C@@H](C1)CC(c1ccc(Cl)cc1)(C3)C2 as well? 14.8 µM (active)

Would you mind doing NS(=O)(=O)c1cccc2c1C(=O)c1cccc(O)c1C2=O as well? 0.264 µM (active)

Would you mind doing CC(=O)Nc1ccc([C@H](C)C(=O)Nc2ncc(C(C)C)s2)cc1 as well? 6.62 µM (active)

Would you mind doing O=C(Nc1cc(Cl)cc2c1[nH]c1cnccc12)c1cccnc1 as well? 11.8 µM (active)

Would you mind doing O=C(Nc1ccccc1-c1cn2c(CN3CCNCC3)csc2n1)c1cnc2ccccc2n1 as well? 10.5 µM (active)

---

assay: qHTS of pediatric cancer cell lines to identify multiple opportunities for drug repurposing: Confirmatory screen for Rh41 cells (AID 1347123); conditions: Rh41 rhabdomyosarcoma cells, viability/cytotoxicity qHTS; series mostly up to 45.9 µM;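 note: 48 h compound exposure; nearly all actives have a fitted effect of over 60% in size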; note: potency is the fitted concentration of half-maximal effect
Records with an inconclusive call do not appear. Activity calls are given as the source filed them. The call rests on the fitted dose curve; in most records, active means well fitted cell-killing curve with a large enough effect; inconclusive means small, poorly fitted or top-dose-only effect; inactive means no such curve, though single readings can be large or run the other way.
observable: Potency

Solved entries (count: 6):
1) O=C(O)c1ccc(-c2c[nH]c3ncc(-c4ccccc4)cc23)cc1C1CCCC1; inactive
2) CCCCCCCCCCCC1=C(O)C(=O)C=C(O)C1=O; inactive
3) CO[C@H]1C=CC=C(C)C(=O)NC2=CC(=O)C(NCCN(C)C)=C(C[C@@H](C)C[C@H](OC)[C@@H](O)[C@@H](C)C=C(C)[C@@H]1OC(N)=O)C2=O; 7.37 µM (active)
4) CNC1CCC(N(Cc2cccc(-c3ccncc3)c2)C(=O)c2sc3c(F)ccc(F)c3c2Cl)CC1 (stereo not drawn); 10.4 µM (active)
5) O=C1NC(=O)C(=Cc2ccc3c(c2)OC(F)(F)O3)S1; inactive
6) O=c1[nH]cnc2c1ncn2[C@H]1CC[C@@H](CO)O1; inactive

Query (compound): O=c1cc(-c2ccc(O)cc2)oc2cc(O)cc(O)c12 ; field requested: Potency inactive

Would you mind doing CO[C@H]1C(=O)[C@]2(C)[C@@H](OC)C[C@H]3OC[C@@]3(OC(C)=O)[C@H]2[C@H](OC(=O)c2ccccc2)[C@]2(O)C[C@H](OC(=O)[C@H](O)[C@@H](NC(=O)OC(C)(C)C)c3ccccc3)C(C)=C1C2(C)C as well? 0.0165 µM (active)

Would you mind doing Nc1ncnc2c1ncn2[C@@H]1O[C@@H](CO)[C@H](O)[C@H]1O as well? inactive

---

target: Cytochrome P450 2C19 (Homo sapiens) (UniProt P33261); test: qHTS Assay for Inhibitors and Substrates of Cytochrome P450 2C19 (AID 899); details: recombinant CYP2C19, luciferin-H EGE luminescence; series mostly up to 57.1 µM; note: nearly all actives have a fitted effect of over 60% in size
Sequence (P33261 whole entry, looked up): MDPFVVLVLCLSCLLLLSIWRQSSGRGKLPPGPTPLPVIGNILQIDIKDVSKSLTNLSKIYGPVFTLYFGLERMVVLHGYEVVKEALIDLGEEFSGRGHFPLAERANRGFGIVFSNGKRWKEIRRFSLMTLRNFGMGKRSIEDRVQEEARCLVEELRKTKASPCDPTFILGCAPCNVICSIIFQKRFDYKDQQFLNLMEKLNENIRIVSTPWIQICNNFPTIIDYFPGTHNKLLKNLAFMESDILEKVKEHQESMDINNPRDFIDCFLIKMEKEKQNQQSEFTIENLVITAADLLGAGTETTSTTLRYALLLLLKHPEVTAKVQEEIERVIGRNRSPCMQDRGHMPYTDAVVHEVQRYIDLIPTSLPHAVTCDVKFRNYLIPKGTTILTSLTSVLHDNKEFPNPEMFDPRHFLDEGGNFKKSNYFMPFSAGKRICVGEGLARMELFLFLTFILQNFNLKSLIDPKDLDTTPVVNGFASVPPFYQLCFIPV
Records with an inconclusive call do not appear. Activity calls are given as the source filed them. The call rests on the fitted dose curve; in most records, active means well fitted inhibition curve with a large enough effect; inconclusive means small, poorly fitted or top-dose-only effect; inactive means no such curve, though single readings can be large or run the other way.
Field 'call' accepts active, inactive

Answered cases to consult:
1) COc1cccc(-c2cc(=O)c3ccccc3o2)c1N; active
2) COc1ccccc1N1CCN(CCCNc2cc(=O)n(C)c(=O)n2C)CC1; active
3) CCCCC1C(=O)N(c2ccccc2)N(c2ccccc2)C1=O; inactive
4) O=c1c(-c2ccc(O)cc2)coc2cc(O)ccc12; inactive
5) O=c1cc(-c2ccccc2)oc2cc(O)c(O)c(O)c12; active
6) CC(=O)CCCCn1c(=O)c2c(ncn2C)n(C)c1=O; inactive
7) CCN(CC)C(=O)c1ccc(O)c(OC)c1; inactive
8) c1cc(-c2sc(-c3ccncc3)c(-c3ccncc3)c2-c2ccncc2)ccn1; active

How did this test come out for CS(=O)c1ccc(-c2nc(-c3ccc(F)cc3)c(-c3ccncc3)[nH]2)cc1 (centres undefined) ? active

---

Reported values of Potency for individual entries
assay: qHTS Assay for Identifying Gametocytocidal Compounds (AID 743244); note: potency is the fitted concentration of half-maximal effect; conditions: P. falciparum 3D7 stage III-V gametocytes, alamarBlue, 72 h
Records with an inconclusive call do not appear. Activity calls are given as the source filed them. The call rests on the fitted dose curve; in most records, active means well fitted curve in the direction sought with a large enough effect; inconclusive means small, poorly fitted or top-dose-only effect, or another doubt; inactive means no such curve, though single readings can be large or run the other way.

1) CN1CCN(CCOc2cc(OC3CCOCC3)c3c(Nc4c(Cl)ccc5c4OCO5)ncnc3c2)CC1; 18.7 µM (active)
2) COc1cc2nc(-c3ccc(N4CCN(C)CC4)cc3)nc(NCCN3CCOCC3)c2cc1OC; 11.8 µM (active)
3) COc1ncc(-c2ccc3nccc(-c4ccnnc4)c3c2)cc1NS(=O)(=O)c1ccc(F)cc1F; 0.935 µM (active)
4) O=C(Nc1ccccc1-c1cn2c(CN3CCNCC3)csc2n1)c1cnc2ccccc2n1; 3.72 µM (active)

# input for lookup
Query (compound): CN(C)C1CCN(C(=O)c2ccc(NC(=O)Nc3nc(N4CCOCC4)nc(N4CCOCC4)n3)cc2)CC1 ; field requested: Potency 23.5 µM (active)
